Recorded growth for the following compounds
# System: EKVX NSCLC
# Procedure summary: NCI-60 one-dose screen, 48 h (100 = growth as untreated, 0 = no growth, -100 = all killed)
# Assay setup: 10 µM unless noted
The panel holds about 83,000 compounds, 20% with a hit somewhere; the sample as a whole holds those more often.
Give the number; % is assumed, so skip it.

CCC1S/C(=N\N=C(/C)c2cc3ccccc3o2)N(c2ccccc2)C1=O (stereo not given); 135
C[C@]12O[C@H]1[C@H](O)c1c(cc(O)c3c1C(=O)c1cccc(O)c1-3)C2=O; 97.8
COc1cccc(C2CC(c3cc(OC)c(OC)c(OC)c3)=NN2)c1 (stereo not given); 117
NC(N)=N/N=C/c1ccc([N+](=O)[O-])cc1; 102
COc1ccc(NC(=O)Nc2ccc(-c3ccc(OC)c(OC)c3)nc2C)cc1; 91.1

Give a short answer stating reported growth for COc1cc(-c2nc(N)n(CC(=O)Nc3ccc(/C(C)=N\O)cc3)n2)cc(OC)c1OC . 106

Give a short answer stating reported growth for CCc1c(C)c2cc3c(c(C)c2oc1=O)OCC(=O)N3 . 35.9

Give a short answer stating reported growth for O=C(Nc1ccc(-n2ccc3c(NC(=O)c4ccccc4)ncnc32)cc1)Nc1ccc(Cl)c(C(F)(F)F)c1 . 8.35

Give a short answer stating reported growth for O=C(O)c1ccc(-c2nn(-c3ccc(C(=O)O)cc3)cc2/C=N/Nc2c(F)c(F)cc(F)c2F)cc1 . 103

Give a short answer stating reported growth for O=C(/C=C/c1ccccc1)Oc1ccc(/C=C/c2cc(OC(=O)/C=C/c3ccccc3)cc(OC(=O)/C=C/c3ccccc3)c2)cc1 . 99.1

* * *

# System: SN12C renal
# Procedure summary: NCI-60 one-dose screen, 48 h (100 = growth as untreated, 0 = no growth, -100 = all killed)
# Assay setup: 10 µM unless noted
About 83,000 compounds went through this panel and 20% of them were active in at least one assay; those are over-represented in the sample as a whole.
Reported property: growth (%)
Give the number; % is assumed, so skip it.

O=C1CCC(c2c(O)cc(O)c3c(=O)c(O)c(-c4ccc(O)c(O)c4)oc23)N1 (stereo not given); 105
Nn1c(CN2CCN(c3cc4c(cc3F)c(=O)c(C(=O)O)cn4C3CC3)CC2)n[nH]c1=S; 95.7
Nc1nc(Nc2ccc(OCc3cccc(F)c3)cc2)c2c(n1)[nH]c1ccc(O)cc12; -69.3
O=C(Nc1ccc(Cl)c(Cl)c1)Nc1ccc(Cl)c([N+](=O)[O-])c1; 6.3

In the following, a different compound is considered.
Param request: growth | system SN12C renal | item Nc1nccc(=S)[nH]1 101

* * *

Recorded growth for the following compounds
# Test system: NCI-H522 lung
# Procedure summary: NCI-60 one-dose screen, 48 h (100 = growth as untreated, 0 = no growth, -100 = all killed)
# Assay setup: 10 µM unless noted
About 83,000 compounds went through this panel and 20% of them were active in at least one assay; those are over-represented in the sample as a whole. The source made the active and inactive calls. The calls were made as follows: active = growth percent below 10; inactive = the rest.

CN(C)c1ncc(C#Cc2c(F)cccc2F)c2ccccc12; 70.7% (inactive)

Give a short answer stating reported growth for OCc1cn(-c2ccc(Cl)cc2)nc1-c1ccc(O)cc1 . 71.2% (inactive)

Give a short answer stating reported growth for COc1cc(NC(C)CCCN2C(=O)c3ccccc3C2=O)c2ncccc2c1OC (stereo not drawn) . 70.8% (inactive)

* * *

Recorded growth for the following compounds
# Test system: HT29 colon
# Procedure summary: NCI-60 one-dose screen, 48 h (100 = growth as untreated, 0 = no growth, -100 = all killed)
# Assay setup: 10 µM unless noted
About 83,000 compounds went through this panel and 20% of them were active in at least one assay; those are over-represented in the sample as a whole.
Give the number; % is assumed, so skip it.

CC(C(=O)O)N1C(N)=NNC1c1ccccc1O (stereo not drawn); 99.3
NN=C(c1ccc(Cl)cc1)c1ccc(Cl)cc1; 96.7

Give a short answer stating reported growth for S=c1n(CNc2ccc(Cl)nn2)nc(-c2cc(Cl)cc(Cl)c2Cl)n1/N=C/c1ccc(Cl)cc1 . 118

Give a short answer stating reported growth for CCOC(=O)n1cnc2c(Cl)ncnc21 . 106

Give a short answer stating reported growth for Cc1nc(N)nc(SCc2ccccc2)c1Br . 92.8

Give a short answer stating reported growth for O=[N+]([O-])c1ccc(NS(=O)(=O)c2ccccc2)c2ccccc12 . 57.5

Give a short answer stating reported growth for COc1ccc(/C(=C/c2cc(OC)c(OC)c(OC)c2)[N+](=O)[O-])cc1 . -14.2

Give a short answer stating reported growth for C=C1C(=O)O[C@H]2[C@H]1CC/C(COC(=O)OC/C1=C/CC[C@@]3(C)O[C@H]3[C@H]3OC(=O)[C@@H](CN(C)C)[C@@H]3CC1)=C\CC[C@@]1(C)O[C@@H]21 . -8

Give a short answer stating reported growth for CN1CCN(Cn2nc(-c3cc(Cl)cc(Cl)c3Cl)n(/N=C/c3ccc(Cl)cc3)c2=S)CC1 . 117

Give a short answer stating reported growth for Nc1nc2ccc(CNc3ccc(C(=O)NC(CC(=O)O)C(=O)O)cc3)cc2c(=O)[nH]1 (stereo not drawn) . 18.6

Give a short answer stating reported growth for CCCCCCCCCCCC(=O)OCCNC(=O)C[n+]1ccccc1 . 93.7

Give a short answer stating reported growth for COc1cccc(-c2nc3sccn3c2-c2ccnc(NCCNC(=O)c3ccccc3)n2)c1 . 53.5

Give a short answer stating reported growth for COc1cc(/C=C/C(=O)c2c(C)[n+]([O-])c3ccccc3[n+]2[O-])ccc1O . 161

* * *

# System: K-562 leukemia
# Procedure summary: NCI-60 one-dose screen, 48 h (100 = growth as untreated, 0 = no growth, -100 = all killed)
# Assay setup: 10 µM unless noted
This is part of a sample that, as a whole, favours compounds with a hit. Of some 83,000 tested, about 20% had one in any assay. Calls of active or inactive are those of the source. Rule for the calls: active = growth percent below 10; inactive = the rest.
Recorded growth for the following molecules

Cc1[nH]n(C(=O)c2ccncc2)c(=O)c1N=Nc1ccc(S(=O)(=O)Nc2ccncn2)cc1; 55.3% (inactive)
COc1ccc2c(c1)nnn1c3ncccc3c(N=O)c21; -75% (active)
CC(C)(CCN=C(N)Nc1ccccn1)c1ccc(C(F)(F)F)cc1; -31.2% (active)
Nc1nccc(=S)[nH]1; 97.8% (inactive)
COc1cc(/C=C/C(=O)c2c(C)n([O-])c3cc(C)c(C)cc3[n+]2=O)cc(OC)c1OC; 21.7% (inactive)

Give a short answer stating reported growth for Nc1nc(-c2cc3c(cc2Cl)NC(=O)/C3=C/c2ccc(Cl)cc2)cs1 . 5.83% (active)

Give a short answer stating reported growth for COc1cc(C(=O)NNC(=O)c2ccccc2O)cc(OC)c1OC . 95.7% (inactive)

Give a short answer stating reported growth for CC(=O)n1cc(/C=C2\N=C(c3ccc(Cl)cc3)N(c3ccc(S(=O)(=O)Nc4nccs4)cc3)C2=O)c2ccccc21 . 59.6% (inactive)

Give a short answer stating reported growth for Nc1ccc(S(=O)(=O)Nc2cc(I)cc(I)c2)cc1 . 78.5% (inactive)

* * *

# System: NCI-H226 lung
# Procedure summary: NCI-60 one-dose screen, 48 h (100 = growth as untreated, 0 = no growth, -100 = all killed)
# Assay setup: 10 µM unless noted
Compounds without any hit were thinned out: in the full panel of roughly 83,000, 20% have a hit.
Reported property: growth (%)
Give the number; % is assumed, so skip it.

O=[N+]([O-])c1ccc(NS(=O)(=O)c2cc(Cl)ccc2Cl)c2ccccc12; 65.7
CCN1CCN(Cc2ccc(NC(=O)Nc3cccc(-n4ccc5c(NC(=O)c6ccccc6)nccc54)c3)cc2C(F)(F)F)CC1; 99.5
O=C1CCC(c2c(O)cc(O)c3c(=O)c(O)c(-c4ccc(O)c(O)c4)oc23)N1 (configuration not stated); 104
CCCCCCCCCCCC(=O)OCCNC(=O)C[n+]1ccccc1; 98.7
C[C@]12CC[C@@H]3c4ccc(O)c(N)c4CC[C@H]3[C@@H]1CC[C@@H]2O; 112

Give a short answer stating reported growth for C=C1C(=O)O[C@H]2[C@H]1CC/C(COC(=O)c1ccc(Br)cc1)=C\CC[C@@]1(C)O[C@@H]21 . -55.8

Give a short answer stating reported growth for COc1ccc2c(c1)/C(=C/c1c(-c3cc(OC)c(OC)c(OC)c3Br)nc3sccn13)C(=O)N2 . 86.1

* * *

# System: KM12 colon
# Procedure summary: NCI-60 one-dose screen, 48 h (100 = growth as untreated, 0 = no growth, -100 = all killed)
# Assay setup: 10 µM unless noted
# Method: Growth inhibition of the KM12 human tumor cell line is measured as a screen for anti-cancer activity. Cells are grown in 96 well plates and exposed to the test compound for 48 hours. Compounds are tested at a single concentration, which is 10^-5 M for most compounds. The reported endpoint is percent growth (GI% or GIPRCNT), where numbers from 0 - 100% represent growth inhibition, and numbers from -100% - 0 represent cell death. For example, a value of 40 represents 60% growth inhibition. […]
Compounds without any hit were thinned out: in the full panel of roughly 83,000, 20% have a hit. Calls of active or inactive are those of the source. How the source made its calls: active means growth percent below 10; inactive means the rest.
Recorded growth for the following compounds

Record excerpt, results attached:
O=C(N/N=C1\SCC(=O)N1c1ccccc1)c1cc(-c2cc3ccccc3o2)nn1-c1ccccc1; 119% (inactive)
O=C(CNc1cccnc1)Nc1ccc(C(=O)/C=C/c2ccc(Cl)cc2)cc1; 69.3% (inactive)
O=C(O)c1ccc(-c2nn(-c3ccc(C(=O)O)cc3)cc2/C=N/Nc2c(F)c(F)cc(F)c2F)cc1; 100% (inactive)

In the following, a different compound is considered.
Give a short answer stating reported growth for O=S(=O)(CCN1CCOCC1)Nc1cc(-c2ccc3ncnc(Nc4ccc(F)c(Cl)c4)c3c2)cnc1Cl . 20.8% (inactive)
